Cited source: paper PMC3753068

Assay: Stability of peptides in human serum
Assay type: in vitro ADME
Where a SMILES comes first, the peptide text is derived from it. The star is where a group is joined. X1 = O=C(CCCCCCCCCCS)NCCCOCCOCCOCCCN*
OBSERVATION TYPE: half-life (min)
Reply with just the number (in min).

Entry CC(=O)N[C@@H](CC(=O)O)C(=O)N[C@@H](CC(C)C)C(=O)N[C@@H](Cc1c[nH]c2ccccc12)C(=O)N[C@@H](CCCCN)C(=O)N[C@@H](CC(C)C)C(=O)NCCCOCCOCCOCCCNC(=O)CCCCCCCCCCS [Compound 1] (Ac-DLWKL-X1; C-terminus assumed) — recorded half-life = 17.5
